Molecular target: Nav1.5/β1 (Homo sapiens, UniProt Q14524)
Construct: Nav1.5 (UniProt: Q14524.1); expressed in transfected cells; host or cells: Xenopus laevis oocytes (cRNA injection, Nav1.5:β1 2:1 by weight)
Assay: Two-electrode voltage clamp of Nav1.5/β1 expressed in Xenopus oocytes
Type: cell-based
Details: 7 μM
Description: Molecular Biology cRNA encoding Kv7.1 (UniProt: P51787), KCNE1 (UniProt: P15382.1), Nav1.5 (UniProt: Q14524.1), Nav β1 (UniProt: […]), Nav β3 (UniProt: […]), Cav1.2 (GenBank: CAA84346), Cav β3 (Uniprot: P54286), Cav β2 (Uniprot: P54288), and Cav α2δ (Uniprot: P13806) were transcribed using the mMessage mMachine T7 kit (Ambion). […] Xenopus laevis oocytes were recorded in the two-electrode voltage clamp (TEVC) configuration. […]
Field: Gmax/Gmax0. Provide a value for each of the molecules that follow.

# annotated cases, reported Gmax/Gmax0 shown
[ask] Output reported Gmax/Gmax0 of the molecule CC/C=C\C/C=C\C/C=C\C/C=C\C/C=C\C/C=C\CCC(=O)NCCS(=O)(=O)O [DHA-taurine] on Nav1.5/β1 (Homo sapiens, UniProt Q14524).
[reply] 0.1 ± 0.01

[ask] Output reported Gmax/Gmax0 of the molecule CCCCC/C=C\C/C=C\CCCCCCCC(=O)NCCS(=O)(=O)O [Lin-taurine, Linoleoyl taurine] on Nav1.5/β1 (Homo sapiens, UniProt Q14524).
[reply] 0.5 ± 0.07

[ask] Output reported Gmax/Gmax0 of the molecule CCCCC/C=C\C/C=C\CC/C=C\CCCC(=O)NCC(=O)O [Pin-glycine] on Nav1.5/β1 (Homo sapiens, UniProt Q14524).
[reply] 0.7 ± 0.08

[ask] Output reported Gmax/Gmax0 of the molecule CCCCC/C=C\C/C=C\CCCCCCCC(=O)NCC(=O)O [Lin-glycine] on Nav1.5/β1 (Homo sapiens, UniProt Q14524).
[reply] 0.5 ± 0.1

[ask] Output reported Gmax/Gmax0 of the molecule CCCCC/C=C\C/C=C\C/C=C\C/C=C\CCCC(=O)NCCS(=O)(=O)O [N-AT, N-arachidonoyl taurine] on Nav1.5/β1 (Homo sapiens, UniProt Q14524).
[reply] 0.3 ± 0.04

[ask] Output reported Gmax/Gmax0 of the molecule CC/C=C\C/C=C\C/C=C\C/C=C\C/C=C\C/C=C\CCC(=O)NCC(=O)O [DHA-glycine, docosahexaenoyl glycine] on Nav1.5/β1 (Homo sapiens, UniProt Q14524).
[reply] 1.0 ± 0.04

Attention now turns to another entry.
[ask] Output reported Gmax/Gmax0 of the molecule CCCCC/C=C\C/C=C\CC/C=C\CCCC(=O)NCCS(=O)(=O)O [Pin-taurine] on Nav1.5/β1 (Homo sapiens, UniProt Q14524).
[reply] 0.4 ± 0.09

----------
Molecular target: Nav1.5/β1 (Homo sapiens)
Construct: Nav1.5 (UniProt: Q14524.1); expressed in transfected cells; host or cells: Xenopus laevis oocytes (cRNA injection, Nav1.5:β1 2:1 by weight)
Assay: Two-electrode voltage clamp of Nav1.5/β1 expressed in Xenopus oocytes
Type: cell-based
Conditions: 0.2 μM
PROPERTY: ΔV0.5 (voltage dependence of inactivation) (mV)
Numbers only, in mV.

# annotated cases, reported ΔV0.5 (voltage dependence of inactivation) shown
[ask] Dear colleague, please send me the reported ΔV0.5 (voltage dependence of inactivation) for CCCCC/C=C\C/C=C\CC/C=C\CCCC(=O)NCCS(=O)(=O)O [Pin-taurine] when you can.
[reply] 1.6

[ask] Dear colleague, please send me the reported ΔV0.5 (voltage dependence of inactivation) for CC/C=C\C/C=C\C/C=C\C/C=C\C/C=C\C/C=C\CCC(=O)NCCS(=O)(=O)O [DHA-taurine] when you can.
[reply] -0.5

Attention now turns to another entry.
[ask] Dear colleague, please send me the reported ΔV0.5 (voltage dependence of inactivation) for CCCCC/C=C\C/C=C\CCCCCCCC(=O)NCC(=O)O [Lin-glycine] when you can.
[reply] -0.2

----------
Molecular target: Cav1.2/β3/α2δ (Homo sapiens)
Construct: expressed in transfected cells; host or cells: Xenopus laevis oocytes (cRNA injection, Cav1.2:β3:α2δ 2:1:1 by weight)
Sequence (Q13936 1-2138 isoform Q13936-20): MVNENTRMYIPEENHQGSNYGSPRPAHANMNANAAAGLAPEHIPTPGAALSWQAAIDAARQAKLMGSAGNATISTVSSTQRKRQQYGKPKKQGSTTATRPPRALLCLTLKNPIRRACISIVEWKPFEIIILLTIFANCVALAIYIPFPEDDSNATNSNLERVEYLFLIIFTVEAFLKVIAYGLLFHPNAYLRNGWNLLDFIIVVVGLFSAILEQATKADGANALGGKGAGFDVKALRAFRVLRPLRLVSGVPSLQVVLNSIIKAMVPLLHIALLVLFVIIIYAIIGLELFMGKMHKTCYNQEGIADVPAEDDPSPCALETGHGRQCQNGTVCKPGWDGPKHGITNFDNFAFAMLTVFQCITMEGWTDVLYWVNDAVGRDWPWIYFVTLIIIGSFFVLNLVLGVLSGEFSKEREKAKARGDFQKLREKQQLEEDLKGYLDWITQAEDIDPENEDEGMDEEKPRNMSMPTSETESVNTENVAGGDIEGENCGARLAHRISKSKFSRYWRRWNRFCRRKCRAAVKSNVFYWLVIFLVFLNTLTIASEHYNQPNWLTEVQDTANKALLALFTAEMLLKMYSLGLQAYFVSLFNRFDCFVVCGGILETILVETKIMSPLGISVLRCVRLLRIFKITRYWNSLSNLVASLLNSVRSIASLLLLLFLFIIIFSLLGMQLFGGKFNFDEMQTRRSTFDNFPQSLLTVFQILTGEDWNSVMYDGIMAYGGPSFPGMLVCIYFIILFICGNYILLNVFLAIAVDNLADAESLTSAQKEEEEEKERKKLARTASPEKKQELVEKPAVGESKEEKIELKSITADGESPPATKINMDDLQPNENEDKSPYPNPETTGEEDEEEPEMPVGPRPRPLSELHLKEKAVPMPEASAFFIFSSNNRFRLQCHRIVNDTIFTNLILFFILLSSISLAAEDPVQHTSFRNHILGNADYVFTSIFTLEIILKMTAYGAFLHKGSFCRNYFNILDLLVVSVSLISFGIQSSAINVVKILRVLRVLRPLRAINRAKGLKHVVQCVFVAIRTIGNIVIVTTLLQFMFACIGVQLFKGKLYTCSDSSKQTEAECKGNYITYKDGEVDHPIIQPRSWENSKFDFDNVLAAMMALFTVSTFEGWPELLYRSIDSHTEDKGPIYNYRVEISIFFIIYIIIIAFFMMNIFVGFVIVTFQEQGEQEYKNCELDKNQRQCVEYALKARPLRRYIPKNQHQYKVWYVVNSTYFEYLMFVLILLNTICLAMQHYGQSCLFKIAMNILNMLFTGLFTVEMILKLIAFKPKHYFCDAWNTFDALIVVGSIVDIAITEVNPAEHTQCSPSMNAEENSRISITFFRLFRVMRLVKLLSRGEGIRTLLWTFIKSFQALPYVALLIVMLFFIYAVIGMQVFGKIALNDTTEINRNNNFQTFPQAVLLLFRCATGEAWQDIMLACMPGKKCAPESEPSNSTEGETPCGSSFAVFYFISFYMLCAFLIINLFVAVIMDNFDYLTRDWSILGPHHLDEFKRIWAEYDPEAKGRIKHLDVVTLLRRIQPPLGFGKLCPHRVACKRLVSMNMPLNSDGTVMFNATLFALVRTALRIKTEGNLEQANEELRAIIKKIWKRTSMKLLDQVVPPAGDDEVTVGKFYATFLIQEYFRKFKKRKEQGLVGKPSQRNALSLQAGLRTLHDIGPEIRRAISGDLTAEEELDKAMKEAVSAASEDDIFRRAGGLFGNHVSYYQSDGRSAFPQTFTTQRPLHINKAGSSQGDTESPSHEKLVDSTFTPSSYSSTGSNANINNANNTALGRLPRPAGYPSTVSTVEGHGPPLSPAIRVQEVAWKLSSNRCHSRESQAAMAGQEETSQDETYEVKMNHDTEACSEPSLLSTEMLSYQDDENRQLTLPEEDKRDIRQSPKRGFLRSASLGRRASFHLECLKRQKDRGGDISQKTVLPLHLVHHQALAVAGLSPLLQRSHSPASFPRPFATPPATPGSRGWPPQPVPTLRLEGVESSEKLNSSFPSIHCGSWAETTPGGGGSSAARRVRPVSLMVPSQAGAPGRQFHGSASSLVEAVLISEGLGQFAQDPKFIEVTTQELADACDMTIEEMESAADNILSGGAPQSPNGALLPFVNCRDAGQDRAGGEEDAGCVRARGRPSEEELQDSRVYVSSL
Sequence (P54286 whole entry partner): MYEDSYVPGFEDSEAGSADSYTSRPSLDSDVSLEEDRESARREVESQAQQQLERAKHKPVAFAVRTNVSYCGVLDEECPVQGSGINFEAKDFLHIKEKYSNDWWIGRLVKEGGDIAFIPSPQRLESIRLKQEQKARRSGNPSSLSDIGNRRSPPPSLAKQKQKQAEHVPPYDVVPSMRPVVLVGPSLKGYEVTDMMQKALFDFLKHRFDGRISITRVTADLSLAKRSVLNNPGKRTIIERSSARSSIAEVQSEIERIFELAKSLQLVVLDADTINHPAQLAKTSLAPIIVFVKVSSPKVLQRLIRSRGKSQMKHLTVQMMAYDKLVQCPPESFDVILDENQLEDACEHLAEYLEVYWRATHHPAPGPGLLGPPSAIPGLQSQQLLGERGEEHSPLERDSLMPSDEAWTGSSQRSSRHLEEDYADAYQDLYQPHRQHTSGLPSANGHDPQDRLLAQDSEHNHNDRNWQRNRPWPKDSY
Sequence (P13806 27-960 partner): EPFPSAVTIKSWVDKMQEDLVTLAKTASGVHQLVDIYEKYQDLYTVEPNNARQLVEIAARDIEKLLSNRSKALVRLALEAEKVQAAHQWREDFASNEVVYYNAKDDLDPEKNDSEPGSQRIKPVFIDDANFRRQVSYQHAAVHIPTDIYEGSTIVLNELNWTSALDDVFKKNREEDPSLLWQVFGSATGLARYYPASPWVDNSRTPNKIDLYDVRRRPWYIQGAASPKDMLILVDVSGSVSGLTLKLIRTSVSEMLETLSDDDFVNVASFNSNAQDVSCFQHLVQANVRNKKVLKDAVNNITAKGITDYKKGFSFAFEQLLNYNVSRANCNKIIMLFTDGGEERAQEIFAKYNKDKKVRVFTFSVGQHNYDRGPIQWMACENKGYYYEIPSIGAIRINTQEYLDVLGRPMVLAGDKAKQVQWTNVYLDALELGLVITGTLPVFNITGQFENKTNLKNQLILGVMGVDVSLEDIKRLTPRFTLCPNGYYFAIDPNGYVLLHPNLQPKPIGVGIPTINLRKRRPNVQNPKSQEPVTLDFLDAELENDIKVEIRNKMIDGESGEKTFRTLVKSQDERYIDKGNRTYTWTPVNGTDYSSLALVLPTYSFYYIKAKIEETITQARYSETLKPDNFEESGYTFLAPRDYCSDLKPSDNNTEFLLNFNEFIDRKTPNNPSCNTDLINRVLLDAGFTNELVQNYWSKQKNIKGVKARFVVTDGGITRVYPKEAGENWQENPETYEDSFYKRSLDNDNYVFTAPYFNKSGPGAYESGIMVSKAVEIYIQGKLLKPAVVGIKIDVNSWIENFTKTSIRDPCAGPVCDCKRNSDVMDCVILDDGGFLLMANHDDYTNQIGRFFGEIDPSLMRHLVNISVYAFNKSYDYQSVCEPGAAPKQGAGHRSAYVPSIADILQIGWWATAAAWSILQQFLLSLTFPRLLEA
Sequence (P13806 961-1106 partner): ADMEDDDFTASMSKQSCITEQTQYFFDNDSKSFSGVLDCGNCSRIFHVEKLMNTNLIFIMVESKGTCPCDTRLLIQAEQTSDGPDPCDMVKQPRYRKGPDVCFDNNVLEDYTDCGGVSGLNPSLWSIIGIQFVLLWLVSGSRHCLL
Assay: Two-electrode voltage clamp of Cav1.2/β3/α2δ expressed in Xenopus oocytes (Ba2+ as charge carrier)
Format: cell-based
Settings: 2 μM
PROPERTY: Gmax/Gmax0

# annotated cases, reported Gmax/Gmax0 shown
[ask] Dear colleague, please send me the reported Gmax/Gmax0 for CCCCC/C=C\C/C=C\CCCCCCCC(=O)NCCS(=O)(=O)O when you can.
[reply] 0.7 ± 0.05

[ask] Dear colleague, please send me the reported Gmax/Gmax0 for CC/C=C\C/C=C\C/C=C\C/C=C\C/C=C\C/C=C\CCC(=O)NCCS(=O)(=O)O when you can.
[reply] 1.1 ± 0.07

Lab note: each compound below needs its Gmax/Gmax0 filled in.
1. CCCCC/C=C\C/C=C\CCCCCCCC(=O)NCC(=O)O
2. CCCCC/C=C\C/C=C\CC/C=C\CCCC(=O)NCCS(=O)(=O)O

[reply]
1: 1.2 ± 0.1; 2: 1.0 ± 0.1

Lab note: each compound below needs its Gmax/Gmax0 filled in.
1. CCCCC/C=C\C/C=C\C/C=C\C/C=C\CCCC(=O)NCCS(=O)(=O)O
2. CC/C=C\C/C=C\C/C=C\C/C=C\C/C=C\C/C=C\CCC(=O)NCC(=O)O

[reply]
1: 0.8 ± 0.03; 2: 1.1 ± 0.1

[ask] Dear colleague, please send me the reported Gmax/Gmax0 for CCCCC/C=C\C/C=C\CC/C=C\CCCC(=O)NCC(=O)O when you can.
[reply] 0.9 ± 0.1

----------
Target: Nav1.5/β1 (Homo sapiens)
Construct: Nav1.5 (UniProt: Q14524.1); expressed in transfected cells; host or cells: Xenopus laevis oocytes (cRNA injection, Nav1.5:β1 2:1 by weight)
Test: Two-electrode voltage clamp of Nav1.5/β1 expressed in Xenopus oocytes
Format: cell-based
Settings: 7 μM
Field: ΔV0.5 (voltage dependence of inactivation). Provide a value for each of the molecules that follow.
One number for each entry, in mV.

Lab note: each molecule below needs its ΔV0.5 (voltage dependence of inactivation) filled in.
1. CCCCC/C=C\C/C=C\CCCCCCCC(=O)NCCS(=O)(=O)O [Lin-taurine, Linoleoyl taurine]
2. CC/C=C\C/C=C\C/C=C\C/C=C\C/C=C\C/C=C\CCC(=O)NCCS(=O)(=O)O [DHA-taurine]

[reply]
−23.5
−28.5

[ask] Dear colleague, please send me the reported ΔV0.5 (voltage dependence of inactivation) for CCCCC/C=C\C/C=C\CCCCCCCC(=O)NCC(=O)O [Lin-glycine] when you can.
[reply] −15.2

----------
Biological target: Kv7.1/KCNE1 (Homo sapiens, UniProt P51787)
Construct: cRNA encoding Kv7.1 (UniProt: P51787), KCNE1 (UniProt: P15382.1); expressed in transfected cells; host or cells: Xenopus laevis oocytes (cRNA injection, Kv7.1:KCNE1 3:1 by weight)
Test: Two-electrode voltage clamp of Kv7.1/KCNE1 expressed in Xenopus oocytes
Format: cell-based
Conditions: 2 μM; relative current at 0 mV
Assign labels as follows, please: criterion met for IKs I/I0 below 2; criterion not met for IKs I/I0 equal to or exceeding 2.

// known answers, use as guide
[ask] Hi there! Is IKs I/I0 for CCCCC/C=C\C/C=C\CC/C=C\CCCC(=O)NCC(=O)O [Pin-glycine] below 2, do you know?
[reply] criterion met

[ask] Hi there! Is IKs I/I0 for CCCCC/C=C\C/C=C\CC/C=C\CCCC(=O)NCCS(=O)(=O)O [Pin-taurine] below 2, do you know?
[reply] criterion not met

[ask] Hi there! Is IKs I/I0 for CC/C=C\C/C=C\C/C=C\C/C=C\C/C=C\C/C=C\CCC(=O)NCC(=O)O [DHA-glycine, docosahexaenoyl glycine] below 2, do you know?
[reply] criterion not met

[ask] Hi there! Is IKs I/I0 for CC/C=C\C/C=C\C/C=C\C/C=C\C/C=C\C/C=C\CCC(=O)NCCS(=O)(=O)O [DHA-taurine] below 2, do you know?
[reply] criterion not met

[ask] Hi there! Is IKs I/I0 for CCCCC/C=C\C/C=C\C/C=C\C/C=C\CCCC(=O)NCCS(=O)(=O)O [N-AT, N-arachidonoyl taurine] below 2, do you know?
[reply] criterion met

[ask] Hi there! Is IKs I/I0 for CCCCC/C=C\C/C=C\CCCCCCCC(=O)NCC(=O)O [Lin-glycine] below 2, do you know?
[reply] criterion not met

With those in mind, consider the next molecule.
[ask] Hi there! Is IKs I/I0 for CCCCC/C=C\C/C=C\CCCCCCCC(=O)NCCS(=O)(=O)O [Lin-taurine, Linoleoyl taurine] below 2, do you know?
[reply] criterion not met
